The following binders are shown together with reported pKd values.
# testedOn: T1, human CD3e/g (human, UniProt P07766 23-126; P09693 23-116)
# T1 construct: Bought soluble protein; also called hCD3e/g; human CD3e/g (Acro CDD-C52W4)
# protocolSummary: SPR (Carterra LSA), mAb on chip
pKd: −log10 of the molar value.

{"binder": "mAb 261 (antibody, V domains shown, VH and VL only) VH: EVQLLESGGGFMQPGGSLRLSCAVSGFTFRTSSMAWVRQAPGKGLEWVSGIRGSGGRTYDAESVKGRFTISRDISKNTLYLQMNNLRAEDTAEYYCAKLYDYYNDFMDVWGKGTTVIVSA VL: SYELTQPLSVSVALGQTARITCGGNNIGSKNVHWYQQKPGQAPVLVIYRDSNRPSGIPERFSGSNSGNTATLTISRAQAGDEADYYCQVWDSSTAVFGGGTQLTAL", "pKd": 8.52}
{"binder": "mAb 133 (antibody, V domains shown, VH and VL only) VH: EVQLVESGGGLVKTGGSLRLSCVASGFSFKKAWMSWVRQAPGKGLEWVGRIKRNTDGGTADYAAPVKGRFTLSRDDSKKTLFLQMNSLKTEDSAVYYCVTLDSSSYYVGYYYMDVWGKGTTVTVSS VL: DIQMTQSPSSVSASVGDRVSITCRASQDINNWLAWYQQKPGKAPKLLIYTASSLQSGVPSRFSGSGSGTDFTLTIGSLQPEDFATYYCQQAHSLPITFGQGTRLEIK", "pKd": 8.18}

# credit: patent US20230295310A1
